As shown below, each of these compounds has a reported TCF/Wnt firefly luciferase reporter signal value.
System: DLD1
Experiment: TCF/Wnt firefly luciferase reporter signal relative to plate median (fraction of plate median); higher = higher Wnt reporter signal
Conditions: 5 µM; treatment time 24 h; reporter: 7TFP
Outcome Measure: TCF/Wnt firefly luciferase reporter signal

Compound: CN1CCN2c3ccccc3Cc3ccccc3C2C1 (stereo not given)
Result: 1.04
//
Compound: CC(C)=CCC[C@](C)(O)C1CC=C(C)CC1 (stereo not given in full)
Result: 1.03
//
Compound: CC(C)[C@H](NC(=O)[C@H](Cc1ccc(O)cc1)NC(=O)[C@@H](NC(=O)C(F)(F)F)C(C)C)C(=O)O
Result: 0.842
//
Compound: COc1cccc2c1C(=O)c1c(O)c3c(c(O)c1C2=O)CC(O)(C(C)O)CC3OC1CC(NC=O)C(O)C(C)O1 (stereo not given)
Result: 1.17
//
Compound: C=C1C[C@H]2[C@@H]3C=C(C)C4=CC(=O)CC[C@]4(C)[C@H]3CC[C@]2(C)[C@@]1(OC(C)=O)C(C)=O
Result: 0.986
//
Compound: OC(CCN1CCCC1)(c1ccccc1)C1CCCCC1 (stereo not given)
Result: 1.12
//
Compound: C[C@@H]1O[C@@H](OC[C@H]2O[C@@H](Oc3c(-c4ccc(O)c(O)c4)oc4cc(O)cc(O)c4c3=O)[C@H](O)[C@@H](O)[C@@H]2O)[C@H](O)[C@H](O)[C@H]1O [RUTOSIDE (rutin)]
Result: 1.03
//
Compound: N=C(N)NS(=O)(=O)c1ccc(N)cc1
Result: 0.962
//
Compound: C[N+]1(C)C[C@H](O)C[C@H]1C(=O)[O-]
Result: 1.06
//
Compound: C[C@@H]1O[C@@H]1P(=O)(O)O
Result: 1.03
//
Compound: CC1(C)C=CC(=O)[C@@]2(C)C1CC(=O)[C@]1(C)C2CC[C@@]2(C)[C@H](c3ccoc3)OC(=O)C3OC321 (stereo not given in full)
Result: 0.99
//
Compound: CC(=O)OC[C@@]1(O)C[C@@]23CC[C@@H]4c5ccoc5CC[C@@]4(C)[C@@H]2CC[C@@H]1C3
Result: 1.08
//
Compound: COc1cc(-c2coc3cc(OC)c(OC)c(OC)c3c2=O)cc(OC)c1OC
Result: 1.05
//
Compound: CC(=O)OCC(=O)[C@@]1(O)[C@@H](C)C[C@H]2[C@@H]3CCC4=CC(=O)C=C[C@]4(C)[C@@]3(F)[C@@H](O)C[C@@]21C
Result: 0.989
//
Compound: CN(C)c1nc(N(C)C)nc(N(C)C)n1
Result: 1.03
//
Compound: O=c1c(O)cccc2cc(O)c(O)c(O)c12
Result: 1.04
//
Compound: NCCNCCNCCN
Result: 0.999
//
Compound: C#C[C@]1(O)CC[C@H]2[C@@H]3CCc4cc(OC)ccc4[C@H]3CC[C@@]21C
Result: 0.981
//
Compound: O=C(C1CCCCC1)N1CC(=O)N2CCc3ccccc3C2C1 (stereo not given)
Result: 1.02
//
Compound: Cc1ccc(=O)n(-c2ccccc2)c1
Result: 0.952

---

Test system: DLD1
Experiment: TCF/Wnt firefly luciferase reporter signal relative to plate median (fraction of plate median); higher = higher Wnt reporter signal
Details: 5 µM; treatment time 24 h; reporter: 7TFP
Response key: TRUE means TCF/Wnt firefly luciferase reporter signal >= 1; FALSE means TCF/Wnt firefly luciferase reporter signal < 1.

Molecule: CCCCCCCCCCCC1=C(O)C(=O)C=C(O)C1=O
Group Label: TRUE
//
Molecule: O=c1[nH]cnc2c1ncn2[C@@H]1O[C@H](CO)[C@@H](O)[C@H]1O [Inosin]
Group Label: FALSE
//
Molecule: COC1=CC(=O)c2c(O)c3c(c(O)c2C1=O)OC1(Oc2c(cc4cc(C)oc(=O)c4c2O)C2OC21)C3O (stereo unspecified)
Group Label: FALSE
//
Molecule: C[C@H]1O[C@@H](O[C@H]2[C@@H](O)C[C@H](O[C@H]3[C@@H](O)C[C@H](O[C@H]4CC[C@@]5(C)[C@H](CC[C@@H]6[C@@H]5C[C@@H](O)[C@]5(C)[C@@H](C7=CC(=O)OC7)CC[C@]65O)C4)O[C@@H]3C)O[C@@H]2C)C[C@H](O)[C@@H]1O
Group Label: FALSE
//
Molecule: OC[C@H]1O[C@H]([S-])[C@H](O)[C@@H](O)[C@@H]1O.[Au+]
Group Label: FALSE
//
Molecule: C[C@H]1c2cccc(O)c2C(=O)C2=C(O)[C@]3(O)C(=O)C(C(N)=O)=C(O)[C@@H](N(C)C)[C@@H]3[C@@H](O)[C@@H]21
Group Label: FALSE
//
Molecule: COc1cccc2c1C(=O)c1c(O)c3c(c(O)c1C2=O)C[C@@](O)(C(=O)CO)C[C@@H]3O[C@H]1C[C@H](N)[C@@H](O)[C@H](C)O1
Group Label: TRUE
//
Molecule: CCOC(=O)[C@@](C)(N)Cc1ccc(O)c(O)c1
Group Label: TRUE
//
Molecule: COc1cc(N)c(Cl)cc1C(=O)NC1CCN(Cc2ccccc2)CC1
Group Label: FALSE
//
Molecule: O=c1cc(-c2ccccc2O)oc2cc(O)ccc12
Group Label: TRUE
//
Molecule: CC(C)C[C@@H]1NC(=O)[C@H](CCCN)NC(=O)[C@H](C(C)C)NC(=O)[C@H](Cc2ccc(O)cc2)N[C@@H](CCC(=O)O)C(=O)N[C@@H](CC(N)=O)C(=O)[C@@H](Cc2ccccc2)NC(=O)[C@H](Cc2ccccc2)NC(=O)[C@@H]2CCCN2C(=O)[C@@H](Cc2ccccc2)NC1=O
Group Label: FALSE
//
Molecule: O=C(O)C1=CCCNC1
Group Label: TRUE
//
Molecule: C[C@@H]1CC[C@H]2C(C(=O)O)=C[C@@H]3[C@@H](O)C(C)(C)C[C@@]132
Group Label: FALSE
//
Molecule: O=C1c2ccccc2C(=O)c2c(Cl)cccc21
Group Label: TRUE
//
Molecule: COc1ccccc1N1CCN(CCCNc2cc(=O)n(C)c(=O)n2C)CC1
Group Label: TRUE
//
Molecule: CCOC(=O)NNc1nncc2ccccc12
Group Label: FALSE
//
Molecule: CC1(C)O[C@H]2[C@H](O)C[C@](O)(C(N)=O)C[C@H]2O1
Group Label: TRUE
//
Molecule: CC(NCCC(c1ccccc1)c1ccccc1)c1ccccc1 (stereo unspecified)
Group Label: FALSE
//
Molecule: Cc1ccccc1N1C(=O)c2cc(S(N)(=O)=O)c(Cl)cc2NC1C (stereo unspecified)
Group Label: TRUE
//
Molecule: CO[C@H]1C[C@H](O[C@@H]2/C(C)=C/C[C@@H]3C[C@@H](C[C@]4(CC[C@H](C)[C@@H](C5CCCCC5)O4)O3)OC(=O)[C@@H]3C=C(C)/C(=N/O)[C@H]4OC/C(=C\C=C\[C@@H]2C)[C@]43O)O[C@@H](C)[C@@H]1O
Group Label: TRUE
//
Molecule: Cc1ccc(C(=O)c2ccc(CC(=O)O)n2C)cc1
Group Label: TRUE
//
Molecule: O=C1OCC(Cc2ccccc2)C1c1ccccc1 (stereo unspecified)
Group Label: FALSE

---

System: DLD1
Assay: cell viability (CellTiter-Glo) relative to plate median (fraction of plate median); higher = more viable cells
Conditions: 5 µM; treatment time 24 h; reporter: 7TFP
Outcome Measure: cell viability

Compound: COc1cc2nc(N(C)CCCNC(=O)C3CCCO3)nc(N)c2cc1OC (configuration not stated)
Result: 1.01
--
Compound: CC1=CC(=O)CC(C)(C)C1(O)/C=C/C(C)=C\C(=O)O (mixture of isomers) [ABSCISIC ACID (cis,trans; )]
Result: 1.05
--
Compound: C[C@]12CCC(=O)C=C1C=C[C@@H]1[C@@H]2CC[C@@]2(C)[C@H]1CC[C@@]21CCC(=O)O1
Result: 0.884
--
Compound: CC(C)COCC(CN(Cc1ccccc1)c1ccccc1)N1CCCC1 (configuration not stated)
Result: 1.06
--
Compound: COc1cc(OC)c2c(OC)c(-c3ccc4c(c3)OCO4)c(=O)oc2c1
Result: 1.04
--
Compound: CN(C)C(=O)C(CCN1CCC(O)(c2ccc(Cl)cc2)CC1)(c1ccccc1)c1ccccc1
Result: 0.892
--
Compound: COc1cccc2c1CCC1=CC(=O)CC[C@@]12C
Result: 1.09
--
Compound: O=S(=O)(O)CCS
Result: 1.01
--
Compound: CC(=O)OCC(=O)[C@@]1(O)CC[C@H]2[C@@H]3CCC4=CC(=O)CC[C@]4(C)[C@H]3[C@@H](O)C[C@@]21C
Result: 1.04
--
Compound: Nc1c(Br)cc(Br)cc1CN[C@H]1CC[C@H](O)CC1
Result: 0.914
--
Compound: CC(C)(Sc1cc(C(C)(C)C)c(O)c(C(C)(C)C)c1)Sc1cc(C(C)(C)C)c(O)c(C(C)(C)C)c1
Result: 0.947
--
Compound: C/C=C/C1=CC(=O)[C@@H](O)[C@@H]1O [Terrein]
Result: 0.964
--
Compound: C[N+]1(CCCCC[N+]2(C)CCCC2)CCCC1
Result: 0.998
--
Compound: CCS(=O)(=O)CCn1c([N+](=O)[O-])cnc1C
Result: 0.965
--
Compound: CN1CCc2cccc3c2[C@H]1Cc1ccc(O)c(O)c1-3
Result: 0.957
--
Compound: C[C@@H]1O[C@@H]1P(=O)(O)O
Result: 1.04
--
Compound: CC(=O)Oc1ccc(-c2cc(=O)c3c(OC(C)=O)cc(OC(C)=O)cc3o2)cc1
Result: 0.993
--
Compound: Cc1noc(NS(=O)(=O)c2ccc(N)cc2)c1C
Result: 0.904
--
Compound: Cc1cc(O)cc(=O)o1
Result: 1.05
--
Compound: C[C@]12C=CC(=O)C=C1CC[C@@H]1[C@@H]2[C@@H](O)C[C@@]2(C)[C@H]1CC[C@]2(O)C(=O)CO
Result: 1.01
--
Compound: CCCCCC(C)N (configuration not stated)
Result: 1.02
--
Compound: CC(=O)CC(c1ccccc1)c1c(O)c2ccccc2oc1=O (configuration not stated)
Result: 1.02
